- procedure details: Confirmation Concentration-Response Assay for lipid storage modulators: for probe SAR
- conditions: Drosophila S3 cells, BODIPY lipid droplet fluorescence, 18-24 h; series mostly up to 46.1 µM
Records with an inconclusive call do not appear. Activity calls are given as the source filed them. Calls follow the shape of the dose curve; as a rule, active = well fitted inhibition curve with a large enough effect; inconclusive = small, poorly fitted or top-dose-only effect, or effect the other way; inactive = no such curve, though single readings can be large or run the other way.
Entry note: the call must match one of 1 for active, 0 for inactive

A selection of reference data follows.
[[record]]
smiles_text = "Cc1ccc(-c2cnc(SCC(=O)Nc3nccs3)n2Cc2ccco2)cc1"
label_value = 0

[[record]]
smiles_text = "Cc1ccc(C)c(-c2csc(NC(=O)CSc3nnc(Nc4ccc(OC(F)(F)F)cc4)s3)n2)c1"
label_value = 0

[[record]]
smiles_text = "CCn1c(C(=O)NCCc2ccc(OC)cc2)cc2sccc21"
label_value = 0


[in] Would you mind telling me which call this test gave O=C(NC1CCCCC1)NC1(C(=O)N2CCCC2)CCCCC1 ?
[out] 0

[in] Would you mind telling me which call this test gave CCOc1ccc(CCNC(=O)c2cc3sccc3n2CC)cc1OCC ?
[out] 1
